Target: T1, C4b binding protein (human, UniProt P04003 49-597; P20851 18-252)
T1 construct: mature; The beta chain is added from general knowledge; Biotinylated (b-C4BP) in some assays; also called C4BP; purified human C4BP
T1 sequence (looked up) 1: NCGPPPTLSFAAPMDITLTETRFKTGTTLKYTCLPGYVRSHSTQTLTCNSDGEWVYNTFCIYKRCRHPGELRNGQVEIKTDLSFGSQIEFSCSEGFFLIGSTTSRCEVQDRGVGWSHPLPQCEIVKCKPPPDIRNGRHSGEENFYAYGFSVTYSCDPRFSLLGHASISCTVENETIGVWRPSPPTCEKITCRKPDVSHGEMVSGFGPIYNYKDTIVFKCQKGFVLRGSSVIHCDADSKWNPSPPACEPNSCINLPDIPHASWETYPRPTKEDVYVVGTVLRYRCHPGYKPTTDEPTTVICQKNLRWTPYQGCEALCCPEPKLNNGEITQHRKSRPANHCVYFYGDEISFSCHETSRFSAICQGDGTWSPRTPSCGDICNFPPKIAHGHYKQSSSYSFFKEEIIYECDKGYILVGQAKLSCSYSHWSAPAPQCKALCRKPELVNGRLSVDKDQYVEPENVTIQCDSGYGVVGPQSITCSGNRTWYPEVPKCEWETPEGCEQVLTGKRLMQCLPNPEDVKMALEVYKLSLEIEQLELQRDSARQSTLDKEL
T1 sequence (looked up) 2: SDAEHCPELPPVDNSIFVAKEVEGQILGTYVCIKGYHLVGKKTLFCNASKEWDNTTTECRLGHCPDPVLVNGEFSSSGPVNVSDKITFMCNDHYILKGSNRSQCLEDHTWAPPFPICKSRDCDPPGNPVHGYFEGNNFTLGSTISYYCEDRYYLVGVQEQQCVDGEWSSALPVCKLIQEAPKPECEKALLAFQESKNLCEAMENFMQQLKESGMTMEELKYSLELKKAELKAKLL
Experiment: Fluid-phase competition of C4BP, b-PS and peptide; capture on anti-C4BP polyclonal IgG
pIC50: −log10 of the molar value. Ends that are not written are not given here.

{"columns": ["binder", "pIC50"],
 "data": [
  ["CIRSWNLMKQGASIKEIIQEKQNKHC-NH2 (cysteine pairing not given here, also called loop peptide) [PSP-loop]", "~4.40"]
]}
